Target chain: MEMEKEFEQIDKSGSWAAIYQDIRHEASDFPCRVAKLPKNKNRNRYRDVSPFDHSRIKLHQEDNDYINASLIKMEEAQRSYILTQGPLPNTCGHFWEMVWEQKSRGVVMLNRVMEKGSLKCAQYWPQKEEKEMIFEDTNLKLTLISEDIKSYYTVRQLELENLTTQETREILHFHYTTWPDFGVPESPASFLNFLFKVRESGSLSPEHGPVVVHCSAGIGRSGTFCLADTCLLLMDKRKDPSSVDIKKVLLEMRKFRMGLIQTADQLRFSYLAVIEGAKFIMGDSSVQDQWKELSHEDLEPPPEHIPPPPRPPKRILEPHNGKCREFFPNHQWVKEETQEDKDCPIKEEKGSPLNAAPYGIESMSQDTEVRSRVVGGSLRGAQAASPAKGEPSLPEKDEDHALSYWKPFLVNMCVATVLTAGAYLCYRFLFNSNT
pIC50: −log10 of the molar value.
metric: pIC50

>  <smiles-entry>
C[C@@](O)(C(=O)O)[C@H](O)COC(=O)/C=C/c1ccc(O)c(O)c1

>  <numeric-value>
4.19

$$$$

----------
measured-target: human recombinant aldose reductase (HRAR) (Homo sapiens)
assay-remarks: Human recombinant aldose reductase (HRAR)-inhibitory activity assay (DL-glyceraldehyde substrate)
pIC50: −log10 of the molar value.

>  <compound>
C[C@@](O)(C(=O)O)[C@H](O)COC(=O)/C=C/c1ccc(O)c(O)c1 [PPT-14, 4-O-caffeoyl-2-C-methyl-D-threonic acid]

>  <measured-target>
human recombinant aldose reductase (HRAR) (Homo sapiens)

>  <pIC50>
4.71

$$$$
